Entries annotated with measured Inhibition at 10µM (%) Replicate 2
subject_of_test: CDK10/Cyclin L2 (Homo sapiens, UniProt Q15131)
Sequence (Q15131 whole entry): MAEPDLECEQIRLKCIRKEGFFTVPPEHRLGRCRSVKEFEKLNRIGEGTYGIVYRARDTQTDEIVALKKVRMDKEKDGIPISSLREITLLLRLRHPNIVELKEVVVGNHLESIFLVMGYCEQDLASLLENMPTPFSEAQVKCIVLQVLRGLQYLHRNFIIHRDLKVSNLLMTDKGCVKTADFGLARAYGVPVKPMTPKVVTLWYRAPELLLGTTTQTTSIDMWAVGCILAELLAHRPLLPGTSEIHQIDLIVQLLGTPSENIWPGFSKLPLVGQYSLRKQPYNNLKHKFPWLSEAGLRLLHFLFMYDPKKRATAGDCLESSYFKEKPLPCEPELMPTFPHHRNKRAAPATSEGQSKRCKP
test_summary: NanoBRET live-cell target engagement, CDK10-NanoLuc/Cyclin L2 in HEK-293
condition_details: CDK10/L2; 10µM

// below: answered compounds
O=C(Nc1c[nH]nc1-c1ccccn1)c1nn(C2CCNCC2)cc1Cl [BDP5290]; 8.8%
CCC(CO)Nc1nc(Nc2cccc(-c3ccccn3)c2)c2ncn(C(C)C)c2n1.Cl.O [(R) - DRF053]; 27.0%
CNC1CCN(C(=O)c2ccc(Nc3ncc(F)c(-c4cnc(C)n4C(C)C)n3)cc2)C1 (stereo not shown) [AZD5597]; 87.4%

Query: Entry CC(C)c1cnn2c(NCc3ccccc3)cc(N[C@@H](CO)[C@H](O)CO)nc12 [BS-194] , system CDK10/Cyclin L2 (Homo sapiens, UniProt Q15131): what Inhibition at 10µM (%) Replicate 2 was measured?
Result: 21.0%
